B1: SMG5 (parent)
chain: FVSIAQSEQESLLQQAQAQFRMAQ

# Variants of: B1
# assay-method-text: protein stability index of a GFP-peptide fusion (GPS, HEK-293T) (PSI 1-6); higher = more stable;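 also: lentivirally expressed fusions sorted by FACS into six bins by GFP to DsRed ratio, PSI derived from sequencing read proportions per bin multiplied by bin number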
# particulars: c terminus: a fixed tail appended
measured-property: protein stability index

> print(dat)
    mutation.list  observed
 1           F20C      2.22
 2            Q9I      1.67
 3            F1C      2.75
 4           Q15P      2.28
 5           M22V      2.61
 6           F20D      3.06
 7            I4C      1.83
 8           L12Y      1.61
 9            I4P      3.08
10            I4K      2.39
11            A5I      1.78
12           Q14L       2.4
13            A5K       2.3
14           L13A      2.14
15           L13Q       2.6
16            F1H       3.9
17            F1T      4.04
18           M22G       2.3
19           Q15T      1.59
20           F20N       2.5
21           A18D      2.37
22            A5E      2.64
23            Q6L      1.79
24            Q9S      2.02
25           L13K      2.52
26           Q17S      2.48
27           A16S      1.94
28           A16F      2.47
29           Q14N      2.59
30           A23S      2.31
31            S3F      1.87
32           M22L      2.01
33            A5L      2.23
34           M22T       2.5
35            A5N      1.86
36           L12D      3.33
37           R21M      1.89
38           Q14P      2.17
39           R21P      2.17
40            Q9A      1.56
